# SYSTEM NAME: Somatostatin receptor type 2 (Rattus norvegicus, UniProt P30680)
# Sequence (P30680 whole entry): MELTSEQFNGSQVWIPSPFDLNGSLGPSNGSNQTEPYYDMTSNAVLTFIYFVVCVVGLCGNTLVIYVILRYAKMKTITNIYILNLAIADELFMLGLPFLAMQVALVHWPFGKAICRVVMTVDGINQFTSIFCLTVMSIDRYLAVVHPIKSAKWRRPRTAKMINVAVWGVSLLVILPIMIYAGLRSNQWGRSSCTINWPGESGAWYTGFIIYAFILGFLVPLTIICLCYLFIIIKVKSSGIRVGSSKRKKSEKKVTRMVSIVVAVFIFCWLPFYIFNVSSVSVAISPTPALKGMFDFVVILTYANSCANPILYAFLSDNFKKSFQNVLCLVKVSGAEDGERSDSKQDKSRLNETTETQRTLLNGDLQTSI
Consider the following molecules; for each one, report its pKd.
Scale: pKd equals -log10([C]), with [C] in mol/L.

Q. Fill in the blank: the reported pKd of CN1C[C@H](C(=O)N2CCN(c3ccccn3)CC2)C[C@@H]2c3cccc4[nH]cc(c34)C[C@H]21 is ____.
A. 4.75

Q. Fill in the blank: the reported pKd of CN1C[C@H](C(=O)N2CCN(c3ccc(F)c(F)c3)CC2)C[C@@H]2c3cccc4[nH]c(Cl)c(c34)C[C@H]21 is ____.
A. 4.89

Q. Fill in the blank: the reported pKd of CN1C[C@H](C(=O)N2CCN(c3ccc([N+](=O)[O-])cc3)CC2)C[C@@H]2c3cccc4[nH]c(Cl)c(c34)C[C@H]21 is ____.
A. 5.05

Q. Fill in the blank: the reported pKd of CN1C[C@H](C(=O)N2CCN(c3ccccn3)CC2)C[C@@H]2c3cccc4[nH]c(Br)c(c34)C[C@H]21 is ____.
A. 4.78

Q. Fill in the blank: the reported pKd of CN1C[C@H](C(=O)N2CCN(c3ccc(Cl)cc3)CC2)C[C@@H]2c3cccc4[nH]c(Cl)c(c34)C[C@H]21 is ____.
A. 5.23

Q. Fill in the blank: the reported pKd of CN1C[C@H](C(=O)N2CCN(c3ccccn3)CC2)C[C@@H]2c3cccc4[nH]c(S(C)(=O)=O)c(c34)C[C@H]21 is ____.
A. 5.11

Q. Fill in the blank: the reported pKd of CN1C[C@H](C(=O)N2CCN(c3ccccn3)CC2)C[C@@H]2c3cccc4[nH]c(O)c(c34)C[C@H]21 is ____.
A. 5.07

---

# SYSTEM NAME: D(2) dopamine receptor (Homo sapiens, UniProt P14416)
# Sequence (P14416 whole entry): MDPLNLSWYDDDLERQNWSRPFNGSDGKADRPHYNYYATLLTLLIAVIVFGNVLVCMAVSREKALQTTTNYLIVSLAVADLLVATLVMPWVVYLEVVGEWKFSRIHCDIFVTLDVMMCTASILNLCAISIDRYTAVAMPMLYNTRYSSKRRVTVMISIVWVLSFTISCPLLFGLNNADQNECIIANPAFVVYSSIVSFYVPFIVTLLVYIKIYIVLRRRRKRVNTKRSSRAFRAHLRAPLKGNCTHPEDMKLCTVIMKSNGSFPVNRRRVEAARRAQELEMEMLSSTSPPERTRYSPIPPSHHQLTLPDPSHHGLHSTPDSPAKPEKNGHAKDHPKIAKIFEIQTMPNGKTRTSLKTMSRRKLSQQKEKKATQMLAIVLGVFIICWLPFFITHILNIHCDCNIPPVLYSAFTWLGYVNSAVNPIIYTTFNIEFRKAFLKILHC
# EXPERIMENT: Binding affinity to human dopamine D2 receptor
OBSERVATION TYPE: Kd (nM)
Reply numerically in nM, unit not repeated.

Q. Fill in the blank: the reported Kd of CN1C[C@H](C(=O)N2CCN(c3ccc4nonc4c3)CC2)C[C@@H]2c3cccc4[nH]c(Br)c(c34)C[C@H]21 is ____.
A. 126

---

# SYSTEM NAME: Somatostatin receptor type 2 (Homo sapiens, UniProt P30874)
# Sequence (P30874 whole entry): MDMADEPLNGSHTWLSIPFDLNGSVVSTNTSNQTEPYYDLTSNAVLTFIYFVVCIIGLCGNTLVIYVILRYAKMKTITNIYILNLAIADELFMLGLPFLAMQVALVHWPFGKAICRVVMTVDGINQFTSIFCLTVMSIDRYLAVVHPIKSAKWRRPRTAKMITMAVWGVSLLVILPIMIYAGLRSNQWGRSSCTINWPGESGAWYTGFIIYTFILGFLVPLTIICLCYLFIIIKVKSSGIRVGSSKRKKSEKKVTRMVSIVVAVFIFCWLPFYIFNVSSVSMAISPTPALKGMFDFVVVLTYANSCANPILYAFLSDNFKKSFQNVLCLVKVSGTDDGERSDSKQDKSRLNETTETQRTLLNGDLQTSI
# EXPERIMENT: Binding affinity to human recombinant sst2 receptor
OBSERVATION TYPE: pKd
Scale: pKd equals -log10([C]), with [C] in mol/L.

Q. Fill in the blank: the reported pKd of CN1C[C@@H](C(=O)N2CCN(c3ccc4nonc4c3)CC2)C[C@H]2c3cccc4[nH]c(Br)c(c34)C[C@@H]21 is ____.
A. 5.41

Q. Fill in the blank: the reported pKd of CN1C[C@H](C(=O)N2CCN(c3ccc4nonc4c3)CC2)C[C@@H]2c3cccc4[nH]c(Br)c(c34)C[C@H]21 is ____.
A. 5.17

Q. Fill in the blank: the reported pKd of CN1C[C@@H](C(=O)N2CCN(c3cccc(=O)n3C)CC2)C[C@H]2c3cccc4[nH]c(Br)c(c34)C[C@@H]21 is ____.
A. 5.03

---

# SYSTEM NAME: Somatostatin receptor type 1 (Rattus norvegicus, UniProt P28646)
# Sequence (P28646 whole entry): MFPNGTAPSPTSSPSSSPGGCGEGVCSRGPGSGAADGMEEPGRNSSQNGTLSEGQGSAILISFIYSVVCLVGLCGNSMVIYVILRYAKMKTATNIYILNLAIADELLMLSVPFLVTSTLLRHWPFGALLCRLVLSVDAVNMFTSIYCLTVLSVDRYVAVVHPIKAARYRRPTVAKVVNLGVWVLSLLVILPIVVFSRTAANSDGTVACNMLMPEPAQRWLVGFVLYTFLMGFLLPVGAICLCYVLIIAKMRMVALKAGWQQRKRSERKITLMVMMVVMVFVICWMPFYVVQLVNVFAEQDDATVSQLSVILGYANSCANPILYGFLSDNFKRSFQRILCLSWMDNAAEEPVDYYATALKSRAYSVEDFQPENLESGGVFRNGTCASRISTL
pKd: −log10 of the molar value.
True means recorded pKd is 8 or above; False means it is below 8.

Q. Hi, just wondering whether CN1C[C@@H](C(=O)N2CCN(c3ccc4nonc4c3)CC2)C[C@H]2c3cccc4[nH]c(Br)c(c34)C[C@@H]21 shows pKd of 8 or higher.
A. False

Q. Hi, just wondering whether CN1C[C@H](C(=O)N2CCN(c3ccccn3)CC2)C[C@@H]2c3cccc4[nH]c(Br)c(c34)C[C@H]21 shows pKd of 8 or higher.
A. True

Q. Hi, just wondering whether CN1C[C@H](C(=O)N2CCN(c3ccc(F)c(F)c3)CC2)C[C@@H]2c3cccc4[nH]c(Cl)c(c34)C[C@H]21 shows pKd of 8 or higher.
A. True

Q. Hi, just wondering whether CN1C[C@@H](C(=O)N2CCN(c3cccc(=O)n3C)CC2)C[C@H]2c3cccc4[nH]c(Br)c(c34)C[C@@H]21 shows pKd of 8 or higher.
A. False

Q. Hi, just wondering whether CN1C[C@H](C(=O)N2CCN(c3cccc(=O)n3C)CC2)C[C@@H]2c3cccc4[nH]c(Cl)c(c34)C[C@H]21 shows pKd of 8 or higher.
A. True

Q. Hi, just wondering whether CN1C[C@H](C(=O)N2CCN(c3ccc4nonc4c3)CC2)C[C@@H]2c3cccc4[nH]c(Cl)c(c34)C[C@H]21 shows pKd of 8 or higher.
A. True
